system: Pseudomonas 5 (Pseudomonas baetica); assay: relative growth (AUC of 72 h growth curve relative to DMSO control, dAUC) (ratio); higher = more growth (less inhibition), active = hit call of the paper; conditions: 20 µM
Listing of entries alongside the reported relative growth.
Could you respond with only the numeric value?

INSERT INTO measurements (molecule, subject_of_test, data_value) VALUES
  ('CSc1nc(NC(C)C)nc(NC(C)C)n1', 'Pseudomonas 5 (Pseudomonas baetica)', 1.03),
  ('CC(C)CC(C)c1sccc1NC(=O)c1cn(C)nc1C(F)(F)F (configuration not stated)', 'Pseudomonas 5 (Pseudomonas baetica)', 1),
  ('CCCCOC(=O)[C@H](C)Oc1ccc(Oc2ccc(C#N)cc2F)cc1', 'Pseudomonas 5 (Pseudomonas baetica)', 1.06),
  ('O=C1c2ccccc2C(=O)N1SC(Cl)(Cl)Cl', 'Pseudomonas 5 (Pseudomonas baetica)', 1.06),
  ('COCC(=O)N(c1c(C)cccc1C)C(C)C(=O)OC (configuration not stated)', 'Pseudomonas 5 (Pseudomonas baetica)', 1.02);

stdin: Provide the documented relative growth with Pseudomonas 5 (Pseudomonas baetica) as the system for "CC1(C)[C@H](C(=O)O[C@H](C#N)c2cccc(Oc3ccccc3)c2)[C@@H]1C=C(Br)Br"
stdout: 1.06

stdin: Test system Pseudomonas 5 (Pseudomonas baetica); read-out relative growth; what value for "CN/C(=N\[N+](=O)[O-])NCc1cnc(Cl)s1" ?
stdout: 1.03

stdin: Quick check: relative growth on Pseudomonas 5 (Pseudomonas baetica), item "Oc1ccccc1-c1ccccc1" ?
stdout: 1.05

stdin: Notebook: pull reported relative growth for Pseudomonas 5 (Pseudomonas baetica), entry CCCCC(C#N)(Cn1cncn1)c1ccc(Cl)cc1 (configuration not stated)
stdout: 0.963

stdin: Observed relative growth on Pseudomonas 5 (Pseudomonas baetica) for "CCCCCCCCCCCCNC(=N)N" , please.
stdout: 0.904

stdin: What value of relative growth on Pseudomonas 5 (Pseudomonas baetica) does "CNC(=O)Oc1cccc2ccccc12" have?
stdout: 1.04

stdin: GET /values?readout=relative growth&system=Pseudomonas 5 (Pseudomonas baetica)&item= "CNC(=O)c1cc(Cl)cc(C)c1NC(=O)c1cc(Br)nn1-c1ncccc1Cl"
stdout: 0.958

====

tested on: Serratia 1 (Serratia sp. 2015-2462-01); assay: relative growth (AUC of 72 h growth curve relative to DMSO control, dAUC) (ratio); higher = more growth (less inhibition), active = hit call of the paper; details: 20 µM
MEASURED_METRIC: relative growth
The reply should be a number, written without any unit.

Known results for molecules:
INSERT INTO measurements (molecule, data_value) VALUES
  ('CC1=NNC(=O)N(/N=C/c2cccnc2)C1', 0.937),
  ('N#Cc1nn(-c2c(Cl)cc(C(F)(F)F)cc2Cl)c(N)c1[S+]([O-])C(F)(F)F (stereo not given)', 0.96),
  ('Oc1ccccc1-c1ccccc1', 0.959),
  ('CN1COCN(Cc2cnc(Cl)s2)/C1=N\[N+](=O)[O-]', 0.99),
  ('CNC(=O)CSP(=S)(OC)OC', 0.96),
  ('CCOCn1c(-c2ccc(Cl)cc2)c(C#N)c(Br)c1C(F)(F)F', 1.01);

stdin: Looking for the measured relative growth of O=C1C2(Cl)C3(Cl)C4(Cl)C(Cl)(Cl)C5(Cl)C3(Cl)C1(Cl)C5(Cl)C24Cl (stereo not given) , can you help?
stdout: 0.909

stdin: What measured relative growth goes with "N#Cc1sc2c(=O)c3ccccc3c(=O)c=2sc1C#N" ?
stdout: 0.862

stdin: I am curious: what relative growth value has been reported for "CC(C)OC(=O)C(C(=O)OC(C)C)=C1SCCS1" ?
stdout: 0.96

stdin: Record request: relative growth value, item "CC(C)(C)c1ccc(CSc2cnn(C(C)(C)C)c(=O)c2Cl)cc1"
stdout: 1.06
